- protocol.description: Oral absorption in rat 10 mg/kg, po
- Type: ADME, organism-based
- Parameters: dose 10 mg/kg, route oral
- test.context: in vivo, read-out: Fabs

# molecule, unit.name, Fa
measured = [
    ("CCOC(=O)N[C@@H]1CC[C@@H]2[C@@H](C1)C[C@H]1C(=O)O[C@H](C)[C@H]1[C@H]2/C=C/c1ccc(-c2cccc(F)c2)cn1 [VORAPAXAR]", "%", 68),
]

###

- protocol.description: AUC (0 to 24 hrs) in cynomolgus monkey at 0.1 mg/kg, po after >24 hrs
- Assay type: ADME, organism-based, Macaca fascicularis
- Set-up: time < 24 hr, dose 0.1 mg/kg, route oral
- test.context: plasma

# smiles.input, unit.name, AUC(0-t) at 24 h
data = [
    ("CCOC(=O)N[C@@H]1CC[C@@H]2[C@@H](C1)C[C@H]1C(=O)O[C@H](C)[C@H]1[C@H]2/C=C/c1ccc(-c2cccc(F)c2)cn1", "µM·h", 0.2),
]

###

- protocol.description: Tmax in rat 10 mg/kg, po
- Format: ADME, organism-based
- Parameters: dose 10 mg/kg, route oral
- test.context: in vivo
observed.property: Tmax (h)

# compound, observed.property, unit.name, test.value
measured = [
    ("CCOC(=O)N[C@@H]1CC[C@@H]2[C@@H](C1)C[C@H]1C(=O)O[C@H](C)[C@H]1[C@H]2/C=C/c1ccc(-c2cccc(F)c2)cn1 [VORAPAXAR]", "Tmax", "h", 3),
]

###

Recorded measurements of AUC(0-t) at 24 h, one per entry
- protocol.description: AUC (0 to 24 hrs) in cynomolgus monkey at 0.1 mg/kg, po after 24 hrs
- Format: ADME, organism-based, Macaca fascicularis
- Design: time < 24 hr, dose 0.1 mg/kg, route oral
- test.context: plasma

# smiles.input, unit.name, AUC(0-t) at 24 h
measured = [
    ("CCOC(=O)N[C@@H]1CC[C@@H]2[C@@H](C1)C[C@H]1C(=O)O[C@H](C)[C@H]1[C@H]2/C=C/c1ccc(-c2cccc(C#N)c2)cn1", "µM·h", 2.08),
    ("CCOC(=O)N[C@@H]1CC[C@@H]2[C@@H](C1)C[C@H]1C(=O)O[C@H](C)[C@H]1[C@H]2/C=C/c1ccc(-c2ccccc2F)cn1", "µM·h", 0.2),
]

###

- protocol.description: Cmax in cynomolgus monkey at 0.1 mg/kg, po after >24 hrs
- Format: ADME, organism-based, Macaca fascicularis
- Parameters: dose 0.1 mg/kg, route oral
- test.context: in vivo

# compound, Cmax / nM
records = [
    ("CCOC(=O)N[C@@H]1CC[C@@H]2[C@@H](C1)C[C@H]1C(=O)O[C@H](C)[C@H]1[C@H]2/C=C/c1ccc(-c2cccc(F)c2)cn1 [VORAPAXAR]", 18),
]

###

- protocol.description: Cmax in cynomolgus monkey at 0.1 mg/kg, po after 24 hrs
- Format: ADME, organism-based, Macaca fascicularis
- Design: dose 0.1 mg/kg, route oral
- test.context: in vivo
observed.property: Cmax (nM)

# smiles.input, test.value
records = [
    ("CCOC(=O)N[C@@H]1CC[C@@H]2[C@@H](C1)C[C@H]1C(=O)O[C@H](C)[C@H]1[C@H]2/C=C/c1ccc(-c2cccc(C#N)c2)cn1", 200),
    ("CCOC(=O)N[C@@H]1CC[C@@H]2[C@@H](C1)C[C@H]1C(=O)O[C@H](C)[C@H]1[C@H]2/C=C/c1ccc(-c2ccccc2F)cn1", 24),
]
